Cited source for all entries: ChEMBL document CHEMBL1157539

Test system: Plasmodium falciparum
PROTOCOL: GSK_TCMDC: Inhibition of Plasmodium falciparum 3D7 in whole red blood cells, using parasite LDH activity as an index of growth. Test compounds present at 2uM
Assay type: functional
Listing of entries alongside the reported Inhibition.
The reply should consist of the numeric value with the unit placed after it.

Entry COc1ccc2nccc([C@@H](O)CN3CCC(NCc4cc5c(F)ccc(F)c5[nH]4)CC3)c2c1.O=C(O)C(=O)O , system Plasmodium falciparum: what Inhibition was measured?
100%

Entry CS(=O)(=O)c1ccc(-c2cc(C(F)(F)F)nc(N[C@@H]3CCCC[C@H]3OCc3ccccc3)n2)cc1 , system Plasmodium falciparum: what Inhibition was measured?
100%
